# upper left quadrant, percent of cells AF647+ / hTcRβ-PerCP- annotations
tested_system: T1, monkey CD3e (Macaca fascicularis) on PBMC (Macaca fascicularis, UniProt Q95LI5 22-198)
T1 construct: Target on PBMC from Macaca fascicularis; also called mfCD3e; monkey PBMC
T1 sequence (Q95LI5 22-198 limits assumed): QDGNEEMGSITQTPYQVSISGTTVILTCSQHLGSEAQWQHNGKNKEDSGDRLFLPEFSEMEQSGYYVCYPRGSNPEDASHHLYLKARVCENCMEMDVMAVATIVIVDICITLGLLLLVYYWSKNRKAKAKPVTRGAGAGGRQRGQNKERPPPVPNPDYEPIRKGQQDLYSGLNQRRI
assay_comment: flow cytometry, Macaca fascicularis PBMC, antibody concentration not given, anti-human IgG Fc-Alexa Fluor647 (1:500), anti-hTcRβ-PerCP (1:30)
Report the value in % with no unit label.

binder | numeric_value
1B1-H1K2-IgG1-LALA (antibody, V domains shown, Humanized; human IgG1 with LALA mutations; also called H1K2 (humanized 1B1)) VH: QVQLVQSGAEVKKPGASVKVSCKASGYTFTSYWMHWVRQAPGQGLEWIGNIYPDSGTTNYGEKFKTRVTLTVDTSTSTAYMELSSLRSEDTAVYYCTRDTSGQYYFDYWGQGTLVTVSS VL: DIVMTQSPDSLAVSAGERVTMNCKSSQSLLNSRTRKNYLAWYQHKPGQSPKLLIYWASTRESGVPDRFSGSGSGTDFTLTISSLQAEDVAVYYCVQSFSLRAFGGGTKVEIK | 80.5

GET /values?readout=upper left quadrant, percent of cells AF647+ / hTcRβ-PerCP-&item= 1B1-H2K2-IgG1-LALA (antibody, V domains shown, Humanized; human IgG1 with LALA mutations; also called H2K2 (humanized 1B1)) VH: QVQLVQSGAEVKKPGASVKLSCKASGYTFTSYWMHWVRQAPGQGLEWIGNIYPDSGTTNYGEKFKTRVTLTVDTSTSTAYMELSSLRSEDTAVYYCTRDTSGQYYFDYWGQGTLVTVSS VL: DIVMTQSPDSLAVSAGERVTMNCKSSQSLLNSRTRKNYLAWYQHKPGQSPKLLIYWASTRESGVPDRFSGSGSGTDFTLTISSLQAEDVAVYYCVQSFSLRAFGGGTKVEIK
84.5
